Provenance of the data: patent US9382228B2

# Test system: M-NFS-60 cells
# PROTOCOL_TEXT: cells
# STATED_CONDITIONS: 67 h, read-out: M-NFS-60 cell proliferation
The reader will find reported IC50 values listed item by item below.

| SMI | IC50 |
| --- | --- |
| COC1(C(=O)NC(=O)Nc2ccc(Oc3ccnc(-c4ccc(C)nc4)c3)cn2)CC1 | 10 to 100 nM |
| Cn1cc(-c2cc(Oc3ccc(NC(=O)NC(=O)C(C)(C)C#N)nc3)ccn2)cn1 | > 1000 nM |
| Cc1ccc(-c2cc(Oc3ccc(NC(=O)NC(=O)C(C)C)nc3C)ccn2)cn1 | 10 to 100 nM |
| Cc1nc(NC(=O)NC(=O)C(C)(C)C(F)(F)F)ccc1Oc1ccnc(-c2cnn(C)c2)c1 | 10 to 100 nM |
| COC1(C(=O)NC(=O)Nc2ccc(Oc3ccnc(-c4ccnc(C)c4)c3)cn2)CCCC1 | 10 to 100 nM |
| CC(C)C(=O)NC(=O)Nc1ccc(Oc2ccnc(-c3ccc(C4CCN(C)CC4)cc3)c2)cn1 | < 10 nM |
| CC(C)c1nc(-c2cc(Oc3ccc(NC(=O)NC(=O)C(C)(C)C)nc3)ccn2)c[nH]1 | 10 to 100 nM |
| Cc1nc(NC(=O)NC(=O)C2CC(C)(C)C2)ccc1Oc1ccnc(-c2cnn(C)c2)c1 | < 10 nM |
| CC(C)(C)C(=O)NC(=O)Nc1ccc(Oc2ccnc(-c3ccc(N)nc3)c2)cn1 | < 10 nM |
| Cc1nc(NC(=O)NC(=O)C(C)(C)C)ccc1Oc1ccnc(-c2ccc(N3CCN(C)CC3)cc2)c1 | 10 to 100 nM |
| CC(C)(C)C(=O)NC(=O)Nc1ccc(Oc2ccnc(-c3cnco3)c2)cn1 | 10 to 100 nM |

---

This section presents molecules with their documented IC50 values.
# System: M-NFS-60 cells
# PROTOCOL_TEXT: cells
# STATED_CONDITIONS: 67 h, read-out: M-NFS-60 cell proliferation

| MOLECULE | IC50 |
| --- | --- |
| Cc1ncc(-c2cc(Oc3ccc(NC(=O)NC(=O)C4CCOC4)nc3)ccn2)s1 (stereo not drawn) [Example 115] | 0.1 to 1 µM |
| Cn1cc(-c2cc(Oc3cnc(NC(=O)NC(=O)C(C)(C)C)cn3)ccn2)cn1 [Example 176] | > 1 µM |
| COC(C)(C)C(=O)NC(=O)Nc1ccc(Oc2ccnc(-c3ccc(C)nc3)c2)cn1 [Example 72] | 0.01 to 0.1 µM |
| COC(C)(C)C(=O)NC(=O)Nc1cc(C)c(Oc2ccnc(-c3cnn(C)c3)c2)c(C)n1 [Example 140] | < 0.01 µM |
| Cc1cn(-c2cc(Oc3ccc(NC(=O)NC(=O)C4(C)CC4)nc3C)ccn2)cn1 [Example 135] | 0.01 to 0.1 µM |
| Cc1cc(-c2cc(Oc3ccc(NC(=O)NC(=O)C4CCOC4)nc3)ccn2)ccn1 (stereo not drawn) [Example 85] | 0.1 to 1 µM |
| Cc1nc(NC(=O)NC(=O)C2CC3(CCC3)C2)ccc1Oc1ccnc(-c2cnn(C)c2)c1 [Example 32] | 0.01 to 0.1 µM |
| CCOC(C)(C)C(=O)NC(=O)Nc1ccc(Oc2ccnc(-c3cnc(C)s3)c2)cn1 [Example 124] | 0.01 to 0.1 µM |
| Cn1cc(-c2cc(Oc3ccc(NC(=O)NC(=O)CC4CC5CCC4C5)nc3)ccn2)cn1 (stereo not drawn) [Example 62] | < 0.01 µM |
| Cc1cn(-c2cc(Oc3ccc(NC(=O)NC(=O)C4CCOCC4)nc3C)ccn2)cn1 [Example 142] | 0.1 to 1 µM |
| Cn1cc(-c2cc(Oc3cnc(NC(=O)NC(=O)C(C)(C)C)nc3)ccn2)cn1 [Example 174] | 0.01 to 0.1 µM |
| CNc1ccc(-c2cc(Oc3ccc(NC(=O)NC(=O)C(C)(C)C)nc3)ccn2)cn1 [Example 105] | 0.01 to 0.1 µM |
| COC(C)(C)C(=O)NC(=O)Nc1ccc(Oc2ccnc(-c3cnc(C(C)C)[nH]3)c2)cn1 [Example 173] | 0.01 to 0.1 µM |
| Cc1nc(NC(=O)NC(=O)CCC2(C(F)(F)F)CC2)ccc1Oc1ccnc(-c2cnn(C)c2)c1 [Example 11] | < 0.01 µM |
| Cn1cc(-c2cc(Oc3ccc(NC(=O)NC(=O)C4CCOC4)nc3)ccn2)cn1 (stereo not drawn) [Example 66] | 0.01 to 0.1 µM |
| CC(C)(C)C(=O)NC(=O)Nc1ccc(Oc2ccnc(-c3cncs3)c2)cn1 [Example 125] | 0.1 to 1 µM |
| CCC(=O)NC(=O)Nc1ccc(Oc2ccnc(-c3ccc(C)nc3)c2)cn1 [Example 108] | > 1 µM |
| Cc1ccc(-c2cc(Oc3ccc(NC(=O)NC(=O)C4CCCC4)nc3C)ccn2)cn1 [Example 100] | 0.01 to 0.1 µM |
| CCC(C)(C)C(=O)NC(=O)Nc1ccc(Oc2ccnc(-c3cnn(C)c3)c2)c(C)n1 [Example 69] | < 0.01 µM |
| CCn1cc(-c2cc(Oc3ccc(NC(=O)NC(=O)C(C)(C)C)nc3C)ccn2)cn1 [Example 60] | 0.01 to 0.1 µM |
| Cc1cc(NC(=O)NC(=O)C(C)C)ncc1Oc1ccnc(-c2cnn(C)c2)c1 [Example 88] | < 0.01 µM |
| Cn1cnc(-c2cc(Oc3ccc(NC(=O)NC(=O)C(C)(C)C)nc3)ccn2)c1 [Example 104] | < 0.01 µM |
| Cn1cc(-c2cc(Oc3ccc(NC(=O)NC(=O)C4(C#N)CC4)nc3)ccn2)cn1 [Example 27] | > 1 µM |
| Cn1cc(-c2cc(Oc3ccc(NC(=O)NC(=O)C4CC(C)(C)C4)nc3)ncn2)cn1 [Example 5] | < 0.01 µM |
| Cc1nc(NC(=O)NC(=O)C2(C)CCC2)ccc1Oc1ccnc(-c2cnn(C)c2)c1 [Example 92] | < 0.01 µM |
| Cn1cc(-c2cc(Oc3ccc(NC(=O)NC(=O)C4CCCCC4)nc3)ccn2)cn1 [Example 67] | < 0.01 µM |
| Cc1cn(-c2cc(Oc3cnc(NC(=O)NC(=O)C(C)(C)C)cc3C)ccn2)cn1 [Example 148] | < 0.01 µM |
| CC(C)(C)C(=O)NC(=O)Nc1ccc(Oc2ccnc(-c3ccc(C(F)(F)F)nc3)c2)cn1 [Example 94] | 0.01 to 0.1 µM |
| COCCCC(=O)NC(=O)Nc1ccc(Oc2ccnc(-c3cnn(C)c3)c2)c(C)n1 [Example 25] | 0.1 to 1 µM |
| COC1(C(=O)NC(=O)Nc2ccc(Oc3ccnc(-c4cc(C)no4)c3)c(C)n2)CCCC1 [Example 166] | 0.01 to 0.1 µM |
| Cn1cc(-c2cc(Oc3ccc(NC(=O)NC(=O)C4(C)CCC4)nc3)ccn2)cn1 [Example 87] | < 0.01 µM |
| Cc1cc(NC(=O)NC(=O)C2(C)CCOCC2)nc(C)c1Oc1ccnc(-c2cnn(C)c2)c1 [Example 165] | 0.01 to 0.1 µM |
| CCc1nc(NC(=O)NC(=O)C2CCOCC2)ccc1Oc1ccnc(-c2cnn(C)c2)c1 [Example 83] | 0.01 to 0.1 µM |

---

# SUBJECT_OF_TEST: unphosphorylated c-KIT kinase (uKIT, Seq. ID no. 2) (Homo sapiens, UniProt P10721)
# Sequence (P10721 with tags, fused parts or gaps): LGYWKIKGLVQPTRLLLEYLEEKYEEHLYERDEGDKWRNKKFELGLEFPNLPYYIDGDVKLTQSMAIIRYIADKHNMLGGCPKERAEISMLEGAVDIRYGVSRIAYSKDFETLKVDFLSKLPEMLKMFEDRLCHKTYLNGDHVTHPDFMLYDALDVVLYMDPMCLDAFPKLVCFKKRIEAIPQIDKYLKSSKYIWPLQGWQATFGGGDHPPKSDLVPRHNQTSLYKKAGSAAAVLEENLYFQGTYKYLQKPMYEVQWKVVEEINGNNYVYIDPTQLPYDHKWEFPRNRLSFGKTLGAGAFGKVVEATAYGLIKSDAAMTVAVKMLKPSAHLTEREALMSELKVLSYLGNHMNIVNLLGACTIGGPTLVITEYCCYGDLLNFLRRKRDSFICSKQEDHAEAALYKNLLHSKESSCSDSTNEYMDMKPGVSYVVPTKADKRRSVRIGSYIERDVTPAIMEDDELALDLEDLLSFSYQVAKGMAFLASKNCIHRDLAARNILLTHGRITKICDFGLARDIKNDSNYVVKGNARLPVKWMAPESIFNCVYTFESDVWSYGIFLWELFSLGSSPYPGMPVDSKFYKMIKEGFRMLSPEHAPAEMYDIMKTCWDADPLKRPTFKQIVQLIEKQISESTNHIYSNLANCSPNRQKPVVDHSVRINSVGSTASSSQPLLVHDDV
# PROTOCOL_TEXT: biochemical
# STATED_CONDITIONS: uKIT, enzymatic assay, ATP 2000 μM
# IC50 per record follows

| SMI | IC50 |
| --- | --- |
| CCOC(C)(C)C(=O)NC(=O)Nc1ccc(Oc2ccnc(-c3cnc(C)s3)c2)cn1 | > 1000 nM |
| COC1(C(=O)NC(=O)Nc2ccc(Oc3ccnc(-c4ccc(C5CCN(C)CC5)cc4)c3)c(C)n2)CC1 | 100 to 1000 nM |
| Cc1cn(-c2cc(Oc3ccc(NC(=O)NC(=O)C4CCOCC4)nc3C)ccn2)cn1 | 100 to 1000 nM |
| CC(C)(C)C(=O)NC(=O)Nc1ccc(Oc2ccnc(-c3ccc(N)nc3)c2)cn1 | 100 to 1000 nM |
| Cc1nc(NC(=O)NC(=O)C(C)(C)C)ccc1Oc1ccnc(-c2ccc(C#N)nc2)c1 | > 1000 nM |
| Cc1ccc(-c2cc(Oc3ccc(NC(=O)NC(=O)C(C)C)nc3C)ccn2)cn1 | > 1000 nM |
| COC1(C(=O)NC(=O)Nc2ccc(Oc3ccnc(-c4cnc(C)s4)c3)cn2)CC1 | 100 to 1000 nM |

---

# System: M-NFS-60 cells
# PROTOCOL_TEXT: cells
# STATED_CONDITIONS: 67 h, read-out: M-NFS-60 cell proliferation
pIC50: −log10 of the molar value.
Quick reference: pIC50 of the listed items.
MEASUREMENT_KIND: pIC50

| COMPOUND | RESULT |
| --- | --- |
| COC1(C(=O)NC(=O)Nc2ccc(Oc3ccnc(-c4cnc(C)s4)c3)cn2)CCCC1 [Example 149] | 7.00 to 8.00 |
| CCC(=O)NC(=O)Nc1ccc(Oc2ccnc(-n3cnc(C)c3)c2)cn1 [Example 128] | < 6.00 |
| Cc1nc(NC(=O)NC(=O)C23CC4CC(CC(C4)C2)C3)ccc1Oc1ccnc(-c2cnn(C)c2)c1 [Example 37] | 7.00 to 8.00 |
